Species: Rattus norvegicus
protocol: Open TG-GATES - Regimen: Single
Type: toxicity, organism-based, Sprague-Dawley
Set-up: regimen Single, gender Male, age 6 weeks
conditions: in vivo, po, 0 mg/kg, 3 h, tissue Plasma, route gavage, dose level Control
Quick reference for Na among some compounds

compound	value_units	Na
Oc1ncnc2[nH]ncc12	meq/L	139.2
C[C@](N)(Cc1ccc(O)c(O)c1)C(=O)O	meq/L	141.8
CCN1CCCC1CNC(=O)c1cc(S(N)(=O)=O)ccc1OC (stereo unspecified) [SULPIRIDE]	meq/L	140.8
CC(=N)S [THIOACETAMIDE]	meq/L	137.2
CCC(C)(C)C(=O)O[C@H]1C[C@@H](C)C=C2C=C[C@H](C)[C@H](CC[C@@H]3C[C@@H](O)CC(=O)O3)[C@H]21	meq/L	138.8
O=C(O)c1cccnc1	meq/L	140.8

----------
Quick reference for TBIL among some molecules
Species: Rattus norvegicus
protocol: Open TG-GATES - Regimen: Daily Repeat
Assay type: toxicity, organism-based, Sprague-Dawley
Set-up: regimen Daily Repeat, gender Male, age 6 weeks
conditions: in vivo, po, 1000 mg/kg, 72 h, tissue Plasma, route gavage, dose level High, time 3 day
readout_name: TBIL

molecule	reading
O=C(N[C@H](CO)[C@H](O)c1ccc([N+](=O)[O-])cc1)C(Cl)Cl	0.05 mg/dL
CCN1CCCC1CNC(=O)c1cc(S(N)(=O)=O)ccc1OC (centres undefined) [SULPIRIDE]	0.056 mg/dL
CC(C)(S)[C@@H](N)C(=O)O	0.038 mg/dL
O=C(O)c1cccnc1	0 mg/dL

----------
Organism: Rattus norvegicus
protocol: Open TG-GATES - Regimen: Daily Repeat
Format: toxicity, organism-based, Sprague-Dawley
Design: regimen Daily Repeat, gender Male, age 6 weeks
conditions: in vivo, po, 1000 mg/kg, […], tissue Blood, route gavage, dose level High, time 7 day
Quick reference for Mono among some compounds
readout_name: Mono

compound	reading
CC(C)(S)[C@@H](N)C(=O)O	3%
CCN1CCCC1CNC(=O)c1cc(S(N)(=O)=O)ccc1OC (centres undefined) [SULPIRIDE]	3.2%
O=C(N[C@H](CO)[C@H](O)c1ccc([N+](=O)[O-])cc1)C(Cl)Cl	2.4%
O=C(O)c1cccnc1	3.4%

----------
Species on record: Rattus norvegicus
protocol: Open TG-GATES - Regimen: Daily Repeat
Format: toxicity, organism-based, Sprague-Dawley
Set-up: regimen Daily Repeat, gender Male, age 6 weeks
conditions: in vivo, po, 1000 mg/kg, 72 h, tissue Plasma, route gavage, dose level High, time 3 day

molecule	TP (g/dL)
O=C(N[C@H](CO)[C@H](O)c1ccc([N+](=O)[O-])cc1)C(Cl)Cl [CHLORAMPHENICOL]	5.2
CC(C)(S)[C@@H](N)C(=O)O [PENICILLAMINE]	5.7
O=C(O)c1cccnc1 [NIACIN]	5.6
CCN1CCCC1CNC(=O)c1cc(S(N)(=O)=O)ccc1OC (centres undefined) [SULPIRIDE]	5.7

----------
Species: Rattus norvegicus
protocol: Open TG-GATES - Regimen: Daily Repeat
Format: toxicity, organism-based, Sprague-Dawley
Parameters: regimen Daily Repeat, gender Male, age 6 weeks
conditions: in vivo, po, 1000 mg/kg, […], tissue Plasma, route gavage, dose level High, time 28 day

compound	RALB / g/dL
O=C(N[C@H](CO)[C@H](O)c1ccc([N+](=O)[O-])cc1)C(Cl)Cl	2.6
CCN1CCCC1CNC(=O)c1cc(S(N)(=O)=O)ccc1OC (centres undefined) [SULPIRIDE]	2.8
O=C(O)c1cccnc1	3
CC(C)(S)[C@@H](N)C(=O)O	2.7

This collection of values is drawn from ChEMBL document CHEMBL3885861.
